# Assayed target: DNA-directed RNA polymerase, mitochondrial (Homo sapiens, UniProt O00411)
# Sequence (O00411 whole entry): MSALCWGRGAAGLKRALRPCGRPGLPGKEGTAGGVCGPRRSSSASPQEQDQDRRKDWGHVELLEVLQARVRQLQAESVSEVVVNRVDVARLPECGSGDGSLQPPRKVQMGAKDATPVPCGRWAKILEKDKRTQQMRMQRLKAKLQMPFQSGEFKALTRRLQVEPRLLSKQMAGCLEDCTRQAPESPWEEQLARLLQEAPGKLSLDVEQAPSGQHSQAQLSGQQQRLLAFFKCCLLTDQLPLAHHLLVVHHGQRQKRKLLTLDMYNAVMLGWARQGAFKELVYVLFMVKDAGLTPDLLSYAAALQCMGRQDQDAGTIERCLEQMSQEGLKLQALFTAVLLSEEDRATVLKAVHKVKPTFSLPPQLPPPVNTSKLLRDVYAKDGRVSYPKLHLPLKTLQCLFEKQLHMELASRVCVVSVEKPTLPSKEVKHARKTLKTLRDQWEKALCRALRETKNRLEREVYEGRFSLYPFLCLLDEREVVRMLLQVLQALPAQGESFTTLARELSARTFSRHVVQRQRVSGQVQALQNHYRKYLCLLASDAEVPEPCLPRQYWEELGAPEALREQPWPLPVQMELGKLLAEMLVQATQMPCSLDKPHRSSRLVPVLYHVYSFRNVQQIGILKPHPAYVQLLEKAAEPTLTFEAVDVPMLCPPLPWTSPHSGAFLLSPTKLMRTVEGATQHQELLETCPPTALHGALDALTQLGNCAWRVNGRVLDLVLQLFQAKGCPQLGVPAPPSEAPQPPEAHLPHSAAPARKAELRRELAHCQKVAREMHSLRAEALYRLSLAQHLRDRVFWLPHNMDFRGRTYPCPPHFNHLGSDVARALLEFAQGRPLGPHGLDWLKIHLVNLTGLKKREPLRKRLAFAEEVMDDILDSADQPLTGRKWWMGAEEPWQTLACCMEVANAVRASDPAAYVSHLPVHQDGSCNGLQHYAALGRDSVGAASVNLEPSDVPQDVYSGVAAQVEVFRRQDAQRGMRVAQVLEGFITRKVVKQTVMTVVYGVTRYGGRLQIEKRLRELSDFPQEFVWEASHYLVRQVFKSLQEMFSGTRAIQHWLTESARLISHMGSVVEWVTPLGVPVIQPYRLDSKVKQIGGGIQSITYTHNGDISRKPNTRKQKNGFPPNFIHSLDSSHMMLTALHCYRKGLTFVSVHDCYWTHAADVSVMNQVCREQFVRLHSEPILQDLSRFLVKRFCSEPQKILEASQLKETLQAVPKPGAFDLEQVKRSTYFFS
# Test name: Inhibition of recombinant human POLRMT by Phosphor imaging analysis
Overview of recorded pIC50 for various compounds
Field pIC50 (float): negative decimal logarithm of the concentration in molar.

1) N#C[C@]1(COP(=O)(O)OP(=O)(O)OP(=O)(O)O)O[C@@H](c2ccc3c(N)ncnn23)[C@H](F)[C@@H]1O = 3.94

// moving on: another record for pIC50
Task item: Please give the measured pIC50 for this compound: `[N-]=[N+]=N[C@]1(COP(=O)(O)OP(=O)(O)OP(=O)(O)O)O[C@@H](c2ccc3c(N)ncnn23)[C@H](O)[C@@H]1O`
Reply: 6.00

---

# Test name: Drug metabolism in Cynomolgous monkey assessed as Cmax of (2R,3S,4R,5S)-5-(4-aminopyrrolo[2,1-f][1,2,4]triazin-7-yl)-3,4-dihydroxy-2-(hydroxymethyl)tetrahydrofuran-2-carbonitrile metabolite at lung-deposited dose of 4 mg/kg, IT measured after 24 hrs by LC-MS/MS analysis
# Type: ADME, organism-based, Macaca fascicularis
# Condition parameters: cynomolgus monkey, in vivo, other
Parameter: Cmax (nM)
Reply with just the number (in nM).

Task item: What value of Cmax has been reported for the following molecule? `COC(=O)[C@H](C)N[P@](=O)(OC[C@@]1(C#N)O[C@@H](c2ccc3c(N)ncnn23)[C@H](OC(=O)C(C)C)[C@@H]1OC(=O)C(C)C)Oc1ccccc1`
Reply: 140

---

# Test name: Cytotoxicity against MDCK cells by MTS assay
# Format: toxicity, cell-based, Canis lupus familiaris
# Condition parameters: dog
Parameter: CC50

Task item: May I ask what CC50 has been recorded for `COC(=O)[C@H](C)N[P@](=O)(OC[C@@]1(C#N)O[C@@H](c2ccc3c(N)ncnn23)[C@H](OC(=O)C(C)C)[C@@H]1OC(=O)C(C)C)Oc1ccccc1` ?
Reply: > 2000 nM

---

# Test name: Drug metabolism in Cynomolgous monkey assessed as Cmax of (2R,3S,4R,5S)-5-(4-aminopyrrolo[2,1-f][1,2,4]triazin-7-yl)-3,4-dihydroxy-2-(hydroxymethyl)tetrahydrofuran-2-carbonitrile metabolite at 5 mg/kg, iv measured after 30 mins by LC-MS/MS analysis
# Format: ADME, organism-based, Macaca fascicularis
# Condition parameters: cynomolgus monkey, in vivo, 0.5 h
Parameter: Cmax (nM)
Answer format: numeric, nM implied, no suffix.

Task item: Query (compound): `COC(=O)[C@H](C)N[P@](=O)(OC[C@@]1(C#N)O[C@@H](c2ccc3c(N)ncnn23)[C@H](OC(=O)C(C)C)[C@@H]1OC(=O)C(C)C)Oc1ccccc1` ; field requested: Cmax
Reply: 961

---

Item-by-item account of logD at 0.5 h
# Test name: Distribution coefficient, log D of compound measured after 30 mins by HPLC/UV analysis
# Type: physicochemical
# Condition parameters: octanol/water
Give a plain numeric answer without units written out.

# annotated cases, reported logD at 0.5 h shown
1) CCC(CC)OC(=O)[C@H](C)NP(=O)(OC[C@@]1(C#N)O[C@@H](c2ccc3c(N)ncnn23)[C@H](O)[C@@H]1O)Oc1ccccc1 (stereo not given in full) = 2.1
2) C[C@H](N[P@](=O)(OC[C@@]1(C#N)O[C@@H](c2ccc3c(N)ncnn23)[C@H](O)[C@@H]1O)Oc1ccccc1)C(=O)OC1CCCCC1 = 2.2
3) COC(=O)[C@H](C)N[P@](=O)(OC[C@@]1(C#N)O[C@@H](c2ccc3c(N)ncnn23)[C@H](O)[C@@H]1O)Oc1ccccc1 = 1.1
4) CCCOC(=O)[C@H](C)N[P@](=O)(OC[C@@]1(C#N)O[C@@H](c2ccc3c(N)ncnn23)[C@H](OC(=O)CC)[C@@H]1OC(=O)CC)Oc1ccccc1 = 2.8
5) CCCOC(=O)[C@H](C)N[P@](=O)(OC[C@@]1(C#N)O[C@@H](c2ccc3c(N)ncnn23)[C@H](O)[C@@H]1O)Oc1ccccc1 = 1.2
6) CCCOC(=O)[C@H](C)N[P@](=O)(OC[C@@]1(C#N)O[C@@H](c2ccc3c(N)ncnn23)[C@H](OC(=O)C(C)C)[C@@H]1OC(=O)C(C)C)Oc1ccccc1 = 3.3

Task item: Item under review: `CCOC(=O)[C@H](C)N[P@](=O)(OC[C@@]1(C#N)O[C@@H](c2ccc3c(N)ncnn23)[C@H](O)[C@@H]1O)Oc1ccccc1` . Reported logD at 0.5 h?
Reply: 1.1

Task item: And for COC(=O)C(C)N[P@](=O)(OC[C@@]1(C#N)O[C@@H](c2ccc3c(N)ncnn23)[C@H](OC(C)=O)[C@@H]1OC(C)=O)Oc1ccccc1 (stereo not given in full) ?
Reply: 2

Task item: Same question for `C[C@H](N[P@](=O)(OC[C@@]1(C#N)O[C@@H](c2ccc3c(N)ncnn23)[C@H](O)[C@@H]1O)Oc1ccccc1)C(=O)OC1CCOCC1` please.
Reply: 1.3

Task item: Would you mind doing `CCC(=O)O[C@H]1[C@H](c2ccc3c(N)ncnn23)O[C@](C#N)(CO[P@@](=O)(N[C@@H](C)C(=O)OC2CCCCC2)Oc2ccccc2)[C@H]1OC(=O)CC` as well?
Reply: 3.5

---

# Test system: Respiratory syncytial virus
# Test name: Antiviral activity against RSV A2 infected in human HEp-2 cells incubated for 4 days by Cell Titer Glo assay
# Format: functional, organism-based
# Condition parameters: A2, HEp-2, 96 h
Parameter EC50: see the listing below.
Write down the numeric answer in nM and omit the unit.

1) C[C@H](N[P@](=O)(OC[C@@]1(C#N)O[C@@H](c2ccc3c(N)ncnn23)[C@H](O)[C@@H]1O)Oc1ccccc1)C(=O)OC1CCOCC1 = 1490
2) C[C@]1(CO)O[C@@H](c2ccc3c(N)ncnn23)[C@H](O)[C@@H]1O = 25300
3) CCCOC(=O)[C@H](C)N[P@](=O)(OC[C@@]1(C#N)O[C@@H](c2ccc3c(N)ncnn23)[C@H](OC(=O)C(C)C)[C@@H]1OC(=O)C(C)C)Oc1ccccc1 = 36

Task item: Under Respiratory syncytial virus: EC50 value of `[N-]=[N+]=N[C@]1(CO)O[C@@H](c2ccc3c(N)ncnn23)[C@H](O)[C@@H]1O` ?
Reply: 2020

Task item: Follow-up item: `COC(=O)[C@H](C)N[P@](=O)(OC[C@@]1(C#N)O[C@@H](c2ccc3c(N)ncnn23)[C@H](OC(=O)C(C)C)[C@@H]1OC(=O)C(C)C)Oc1ccccc1`
Reply: 46

Task item: Query `C[C@H](N[P@](=O)(OC[C@@]1(C#N)O[C@@H](c2ccc3c(N)ncnn23)[C@H](O)[C@@H]1O)Oc1ccccc1)C(=O)OC1CCCCC1` next
Reply: 148

---

Item-by-item account of CC50
# Test name: Cytotoxicity against human Hep-2 cells incubated for 4 to 5 days by Cell Titer Glo assay
# Type: toxicity, cell-based
# Condition parameters: time 4-5 day

Use these answered entries as a reference point.
1. CC(=O)O[C@H]1[C@H](c2ccc3c(N)ncnn23)O[C@](C#N)(CO[P@@](=O)(N[C@@H](C)C(=O)OC2CCCCC2)Oc2ccccc2)[C@H]1OC(C)=O = > 49 µM
2. CC(C)C(=O)O[C@H]1[C@H](c2ccc3c(N)ncnn23)O[C@](C#N)(CO[P@@](=O)(N[C@@H](C)C(=O)OC2CCCCC2)Oc2ccccc2)[C@H]1OC(=O)C(C)C = 18.1 µM
3. C[C@H](N[P@@](=O)(OC[C@@]1(C#N)O[C@@H](c2ccc3c(N)ncnn23)[C@H](O)[C@@H]1O)Oc1ccccc1)C(=O)OC1CCCCC1 = > 50 µM

Task item: State the recorded CC50 for this entry: `C[C@H](N[P@](=O)(OC[C@@]1(C#N)O[C@@H](c2ccc3c(N)ncnn23)[C@H](O)[C@@H]1O)Oc1ccccc1)C(=O)OC1CCCCC1`
Reply: > 100 µM

Task item: Try the compound `COC(=O)[C@H](C)N[P@](=O)(OC[C@@]1(C#N)O[C@@H](c2ccc3c(N)ncnn23)[C@H](OC(=O)C(C)C)[C@@H]1OC(=O)C(C)C)Oc1ccccc1`
Reply: 22.7 µM

Task item: One more compound: `Nc1ncnn2c([C@@H]3O[C@H](CO)[C@@H](O)[C@H]3O)ccc12`
Reply: 0.037 µM

Task item: Param item: COC(=O)C(C)N[P@](=O)(OC[C@@]1(C#N)O[C@@H](c2ccc3c(N)ncnn23)[C@H](OC(C)=O)[C@@H]1OC(C)=O)Oc1ccccc1 (stereo partly drawn)
Reply: > 42 µM

Task item: Okay, and `C[C@]1(CO)O[C@@H](c2ccc3c(N)ncnn23)[C@H](O)[C@@H]1O` ?
Reply: > 50 µM

Task item: Repeat with `CCCOC(=O)[C@H](C)N[P@](=O)(OC[C@@]1(C#N)O[C@@H](c2ccc3c(N)ncnn23)[C@H](OC(=O)CC)[C@@H]1OC(=O)CC)Oc1ccccc1`
Reply: 27.3 µM
